Reported TGI values follow for various compounds
Test system: MCF7 breast
Experiment: NCI tumour cell line growth inhibition, 48 h
outcome_measure: TGI

compound=O=S(=O)(c1ccccc1)[C@@H]1[C@H]2C=C[C@](CS)(O2)[C@H]1S(=O)(=O)c1ccccc1 result="> 100 µM"
compound=O=Cc1c[nH]c2ccc(-c3csc4ccccc34)cc12 result="> 100 µM"
compound=CC(C)CNC(=O)c1c(NC(=O)c2ccccc2)sc2[nH]c(=O)n(-c3ccccc3)c(=O)c12 result="> 100 µM"
compound=NS(=O)(=O)c1ccc(N=Nc2ccc(O)c(O)c2)cc1 result="> 100 µM"
compound="CC(=O)OCC1=C2C(OC(=O)C(C)C)CC3(COC(C)=O)OC3/C=C\\C3(C)OC3C2OC1=O (stereo unspecified)" result="> 100 µM"
compound=S=C(Nc1ccc(Cl)cc1)SC1CCCCC1 result="40.6 µM"

The measured values listed here are drawn from PubChem BioAssay (NCI).
